assay-system: BRD4 bromo domain 1 [BRD4(1)] (Homo sapiens, UniProt O60885)
Construct: N-terminally His6-tagged BRD4(1) (amino acids 67-152)
experiment-description: BRD4(1)/acetylated peptide H4 TR-FRET binding assay
conditions-used: His6-BRD4(1) (aa 67-152) vs acetylated histone H4 peptide
pIC50: −log10 of the molar value.
value-kind: pIC50

structure-smiles-string: COc1ccc(S(=O)(=O)C2CC2)cc1Nc1ccc2c(n1)N(C1CCOCC1)[C@H](C)C(=O)N2C
assay-system: BRD4 bromo domain 1 [BRD4(1)] (Homo sapiens, UniProt O60885)
reading: 7.64
--
structure-smiles-string: COc1ccc(S(=O)(=O)C(C)C)cc1Nc1ccc2c(n1)N(C1CCN(CC(F)(F)F)CC1)[C@H](C)C(=O)N2C
assay-system: BRD4 bromo domain 1 [BRD4(1)] (Homo sapiens, UniProt O60885)
reading: 7.62

1: CC(C)S(=O)(=O)c1ccc(OC(F)(F)F)c(Nc2ccc3c(n2)N(C2CCN(C)CC2)[C@H](C)C(=O)N3C)c1
2: C[C@@H]1C(=O)N(C)c2ccc(Nc3cccc(S(C)(=O)=O)c3)nc2N1C1CCN(C)CC1
Query: Min pIC50? 1 | 2 Selection: enter the item's label.
Response: 2
(2: 7.03, 1: 7.74)

====

assay-system: BRD4 bromo domain 2 [BRD4(2)] (Homo sapiens, UniProt O60885)
Construct: N-terminally His6-tagged BRD4(2) (amino acids 357-445)
experiment-description: BRD4(2)/acetylated peptide H4 TR-FRET binding assay
conditions-used: His6-BRD4(2) (aa 357-445) vs acetylated histone H4 peptide
pIC50: −log10 of the molar value.
value-kind: pIC50

structure-smiles-string: COc1ccc(S(=O)(=O)C(C)C)cc1Nc1ccc2c(n1)N(C1CCOCC1)[C@H](C)C(=O)N2C
pIC50: 7.28

structure-smiles-string: CC(C)S(=O)(=O)c1ccc(OC(F)(F)F)c(Nc2ccc3c(n2)N(C2CCOCC2)[C@H](C)C(=O)N3C)c1
pIC50: 7.28

I: C=CCS(=O)(=O)c1ccc(OC)c(Nc2ccc3c(n2)N(C2CCN(C)CC2)[C@H](C)C(=O)N3C)c1
II: CCS(=O)(=O)c1ccc(Oc2ccc(F)cc2)c(Nc2ccc3c(n2)N(C2CCN(C)CC2)[C@H](C)C(=O)N3C)c1
Query: Endpoint returns whichever of I and II has the numerically higher pIC50. Selection: enter the item's label.
Response: II

====

assay-system: BRD4 bromo domain 1 [BRD4(1)] (Homo sapiens)
Construct: N-terminally His6-tagged BRD4(1) (amino acids 67-152)
experiment-description: BRD4(1)/acetylated peptide H4 TR-FRET binding assay
conditions-used: His6-BRD4(1) (aa 67-152) vs acetylated histone H4 peptide
pIC50: −log10 of the molar value.
value-kind: pIC50

Recorded pIC50, per entry:
compound: COc1ccc(S(C)(=O)=O)cc1Nc1ccc2c(n1)N(C1CCNCC1)[C@H](C)C(=O)N2C [Example 27]
reading: 7.27
--
compound: CCS(=O)(=O)c1ccc(Oc2ccccc2)c(Nc2ccc3c(n2)N(C2CCOCC2)[C@H](C)C(=O)N3C)c1 [Example 36]
reading: 7.47
--
compound: CCS(=O)(=O)c1ccc(Oc2ccc(F)cc2)c(Nc2ccc3c(n2)N(C2CCOCC2)[C@H](C)C(=O)N3C)c1 [Example 37]
reading: 7.46

A: CC(C)S(=O)(=O)c1cccc(Nc2ccc3c(n2)N(C2CCOCC2)[C@H](C)C(=O)N3C)c1 [Example 7]
B: COc1ccc(S(=O)(=O)C2CC2)cc1Nc1ccc2c(n1)N(C(C)C)[C@H](C)C(=O)N2C [Example 15]
C: COc1ccc(S(C)(=O)=O)cc1Nc1ccc2c(n1)N(C1CCN(C(=O)OC(C)(C)C)CC1)[C@H](C)C(=O)N2C [Example 25]
D: COc1ccc(S(=O)(=O)C(C)C)cc1Nc1ccc2c(n1)N(C1CCN(C)CC1)[C@H](C)C(=O)N2C [Example 13]
E: CC1C(=O)N(C)c2ccc(Nc3cccc(S(C)(=O)=O)c3)nc2N1c1ccccc1 (stereo not drawn) [Example 17]
Query: Sort by pIC50, descending. Please express your ranking as an ordered list of the labels.
Response: D, A, B, C, E

====

Tested on: B16F10 cells
experiment-description: Cell proliferation assay B16F10 (alamarBlue)
Format: cell-based
conditions-used: Mus musculus, B16-F10, melanoma (BRAF wild-type) cells, 96 hours
value-kind: IC50 (nM)

I: COc1ccc(S(=O)(=O)C2CCOCC2)cc1Nc1ccc2c(n1)N(C1CCN(C)CC1)[C@H](C)C(=O)N2C
II: CC1C(=O)N(C)c2ccc(Nc3cccc(S(C)(=O)=O)c3)nc2N1c1ccccc1 (stereo not shown)
Query: Min IC50? I | II Selection: enter the item's label.
Response: I

I: COc1ccc(S(=O)(=O)C2CC2)cc1Nc1ccc2c(n1)N(C1CCN(C)CC1)[C@H](C)C(=O)N2C
II: COc1ccc(S(=O)(=O)C(C)C)cc1Nc1ccc2c(n1)N(C1CCOCC1)[C@H](C)C(=O)N2C
Query: Endpoint returns whichever of I and II has the numerically higher IC50. Selection: enter the item's label.
Response: I

====

Reported IC50 values for a set of compounds
System: CHL-1 cells
experiment-description: Cell proliferation assay CHL-1 (alamarBlue)
Assay type: cell-based
conditions-used: Homo sapiens, melanoma (BRAF wild-type) cells, 96 hours
Only the number, expressed in nM, is required.

compound: C[C@@H]1C(=O)N(C)c2ccc(Nc3ccc4c(c3)S(=O)(=O)CC4)nc2N1C1CCOCC1
unit-tag: nM
IC50: 196

Query: Can you share its IC50? I mean this compound: C[C@@H]1C(=O)N(C)c2ccc(Nc3cccc(S(=O)(=O)C4CC4)c3)nc2N1C1CCOCC1
Response: 46

Query: Same thing, different compound: COc1ccc(S(=O)(=O)C(F)(F)F)cc1Nc1ccc2c(n1)N(C1CCN(C)CC1)[C@H](C)C(=O)N2C
Response: 16

Query: Same thing, different compound: COc1ccc(S(=O)(=O)C2CCC2)cc1Nc1ccc2c(n1)N(C1CCOCC1)[C@H](C)C(=O)N2C
Response: 10

====

assay-system: BRD4 bromo domain 2 [BRD4(2)] (Homo sapiens)
Construct: N-terminally His6-tagged BRD4(2) (amino acids 357-445)
experiment-description: BRD4(2)/acetylated peptide H4 TR-FRET binding assay
conditions-used: His6-BRD4(2) (aa 357-445) vs acetylated histone H4 peptide
value-kind: IC50 (nM)

Recorded IC50, per entry:
structure-smiles-string: C[C@@H]1C(=O)N(C)c2ccc(Nc3cccc(C(F)(F)F)c3)nc2N1C1CCOCC1
value-kind: IC50
reading: 234
//
structure-smiles-string: COc1ccc(S(=O)(=O)C(C)C)cc1Nc1ccc2c(n1)N(C1CCN(CCC(F)(F)F)CC1)[C@H](C)C(=O)N2C
value-kind: IC50
reading: 68
//
structure-smiles-string: COc1ccc(S(=O)(=O)C(F)(F)F)cc1Nc1ccc2c(n1)N(C1CCN(C)CC1)[C@H](C)C(=O)N2C
value-kind: IC50
reading: 58
//
structure-smiles-string: Cc1cc(Nc2ccc3c(n2)N(C2CCOCC2)[C@H](C)C(=O)N3C)ccn1
value-kind: IC50
reading: 180

a: C[C@@H]1C(=O)N(C)c2ccc(Nc3cccc(S(C)(=O)=O)c3)nc2N1C1CCCCCC1
b: COc1ccc(S(=O)(=O)C(C)C)cc1Nc1ccc2c(n1)N(C1CCNCC1)[C@H](C)C(=O)N2C
c: Cc1ccc(S(C)(=O)=O)cc1Nc1ccc2c(n1)N(C1CCOCC1)[C@H](C)C(=O)N2C
d: C[C@@H]1C(=O)N(C)c2ccc(Nc3cccc(-c4ccc(C#N)cc4)c3)nc2N1C1CCOCC1
e: COc1ccc(S(=O)(=O)C(C)C)cc1Nc1ccc2c(n1)N(C(C)C)[C@H](C)C(=O)N2C
Query: Sort by IC50, descending. Please express your ranking as an ordered list of the labels.
Response: d, c, a, b, e
(d: 294 nM, c: 173 nM, a: 96 nM, b: 52 nM, e: 33 nM)

P: CC(C)S(=O)(=O)c1cccc(Nc2ccc3c(n2)N(C2CCOCC2)[C@H](C)C(=O)N3C)c1
Q: COc1ccc(S(=O)(=O)C2CC2)cc1Nc1ccc2c(n1)N(C1CCN(C)CC1)[C@H](C)C(=O)N2C
R: C[C@@H]1C(=O)N(C)c2ccc(Nc3cccc(N4CCN(C)CC4)c3)nc2N1C1CCOCC1
S: CC(C)S(=O)(=O)c1cccc(Nc2ccc3c(n2)N(C2CCN(CCC(F)(F)F)CC2)[C@H](C)C(=O)N3C)c1
Query: Give the ascending ranking of the items by reported IC50. Please express your ranking as an ordered list of the labels.
Response: P, Q, S, R

P: COc1ccc(S(=O)(=O)C(C)C)cc1Nc1ccc2c(n1)N(C1CCN(C)CC1)[C@H](C)C(=O)N2C
Q: CCS(=O)(=O)c1ccc(Oc2ccc(F)cc2)c(Nc2ccc3c(n2)N(C2CCOCC2)[C@H](C)C(=O)N3C)c1
Query: Endpoint returns whichever of P and Q has the numerically higher IC50. Selection: enter the item's label.
Response: P
